system: NF-κB; test: 5.1 cell line + TNFα, HIV-LTR luciferase (NF-κB activation); type: cell-based; conditions: read-out: Antiviral activity 5.1 + TNFα 50 µM (inhibition of NF-κB function)
Collected inhibition at 50 µM values appear next to each entry.
PARAMETER MEASURED: inhibition at 50 µM (%)

| MOLECULE | MEASUREMENT UNIT | MEASURED NUMBER |
| --- | --- | --- |
| O=c1oc2ccccc2cc1-c1ccc2c(c1)OCO2 | % | 68.5 |
| O=c1oc2ccccc2cc1-c1ccccc1 | % | 21.7 |
| O=c1oc2ccccc2cc1-c1ccc(Cl)cc1 | % | 33 |
| COc1cc(-c2cc3ccccc3oc2=O)cc(OC)c1OC | % | 49.7 |
| COc1ccc2c(O)c(-c3ccccc3)c(=O)oc2c1 | % | -4.7 |
| COc1ccc2c(Cl)c(-c3ccccc3)c(=O)oc2c1 | % | -21.2 |
| CSc1ccc(-c2cc3ccccc3oc2=O)cc1 | % | 81.6 |
| O=c1oc2ccccc2cc1-c1ccc(Cl)cc1Cl | % | -40.9 |
| O=c1oc2cc(O)ccc2cc1-c1ccccc1 [Compound 16, 7-Hydroxy-3-phenyl-2H-chromen-2-one] | % | 59 |
| O=c1oc2ccccc2cc1-c1ccccc1Cl | % | -28.7 |
| COc1ccc(-c2cc3cccc(O)c3oc2=O)cc1 | % | 87.8 |
| COc1ccc(-c2cc3ccccc3oc2=O)cc1OC | % | -23 |
| COc1ccc(-c2cc3ccccc3oc2=O)cc1 | % | 61.2 |

----------
Collected melting point values appear next to each entry.

| COMPOUND | melting point |
| --- | --- |
| O=c1oc2ccccc2cc1-c1ccccc1Cl [Compound 8, 3-(2-Chlorophenyl)-2H-chromen-2-one] | 186 to 188 °C |
| O=c1oc2ccccc2cc1-c1ccc2c(c1)OCO2 [Compound 13] | 168 to 170 °C |
| COc1cc(-c2cc3ccccc3oc2=O)cc(OC)c1OC [Compound 15] | 122 to 124 °C |
| O=c1oc2ccccc2cc1-c1ccc(Cl)cc1 [Compound 9, 3-(4-Chlorophenyl)-2H-chromen-2-one] | 190 to 192 °C |
| COc1ccc(-c2cc3ccccc3oc2=O)cc1OC [Compound 14, 3-(3,4-Dimethoxyphenyl)-2H-chromen-2-one] | 127 to 129 °C |
| CSc1ccc(-c2cc3ccccc3oc2=O)cc1 [Compound 11] | 157 to 159 °C |
| COc1ccc2c(O)c(-c3ccccc3)c(=O)oc2c1 [Compound 19] | 217 to 219 °C |
| O=c1oc2ccccc2cc1-c1ccc(Cl)cc1Cl [Compound 12, 3-(2,4-Dichlorophenyl)-2H-chromen-2-one] | 226 to 228 °C |
| COc1ccc(-c2cc3ccccc3oc2=O)cc1 [Compound 10, 3-(4-Methoxyphenyl)-2H-chromen-2-one] | 141 to 143 °C |

----------
tested on: tetracycline-induced luciferase activity in HeLa-Tet-ON cells; experiment: HeLa-Tet-ON specificity assay; format: cell-based; design: key: S: specific; U: unspecific modes of action
PARAMETER MEASURED: HeLa-Tet-ON 50 µM (specific / unspecific mode of action)

| MOLECULE | RESULT |
| --- | --- |
| COc1ccc2oc(=O)c(-c3ccccc3)c(O)c2c1 [Compound 18] | S |
| O=c1oc2ccccc2cc1-c1ccc2c(c1)OCO2 [Compound 13] | S |
| O=c1oc2ccccc2cc1-c1ccccc1Cl [Compound 8, 3-(2-Chlorophenyl)-2H-chromen-2-one] | S |
| O=c1oc2ccccc2cc1-c1ccccc1 [Compound 7, 3-Phenyl-2H-chromen-2-one] | S |
| COc1ccc2c(O)c(-c3ccccc3)c(=O)oc2c1 [Compound 19] | S |
| O=c1oc2cc(O)ccc2cc1-c1ccccc1 [Compound 16, 7-Hydroxy-3-phenyl-2H-chromen-2-one] | S |
| COc1cc(-c2cc3ccccc3oc2=O)cc(OC)c1OC [Compound 15] | U |
| O=c1oc2ccccc2cc1-c1ccc(Cl)cc1Cl [Compound 12, 3-(2,4-Dichlorophenyl)-2H-chromen-2-one] | S |
| COc1ccc(-c2cc3ccccc3oc2=O)cc1 [Compound 10, 3-(4-Methoxyphenyl)-2H-chromen-2-one] | U |
| CSc1ccc(-c2cc3ccccc3oc2=O)cc1 [Compound 11] | U |
| COc1ccc(-c2cc3cccc(O)c3oc2=O)cc1 [Compound 17] | U |

----------
system: non-infected MT-2 cells; test: Cell viability, MTT assay in non-infected treated cultures; format: cell-based; parameters: unit not given here; conditions: MTT, non-infected cultures
Collected Toxicity (%) CC50 values appear next to each entry.
PARAMETER MEASURED: Toxicity (%) CC50

| MOLECULE | TGT | RESULT |
| --- | --- | --- |
| O=c1oc2ccccc2cc1-c1ccccc1Cl | non-infected MT-2 cells | >50 |
| COc1ccc2c(O)c(-c3ccccc3)c(=O)oc2c1 | non-infected MT-2 cells | >50 |
| O=c1oc2ccccc2cc1-c1ccc2c(c1)OCO2 | non-infected MT-2 cells | 16.7 ± 3.4 |
| O=c1oc2ccccc2cc1-c1ccccc1 | non-infected MT-2 cells | >50 |
| COc1ccc(-c2cc3ccccc3oc2=O)cc1OC | non-infected MT-2 cells | >50 |
| COc1ccc2c(Cl)c(-c3ccccc3)c(=O)oc2c1 | non-infected MT-2 cells | 18.4 ± 8.2 |
| CSc1ccc(-c2cc3ccccc3oc2=O)cc1 | non-infected MT-2 cells | >50 |
| O=c1oc2ccccc2cc1-c1ccc(Cl)cc1 | non-infected MT-2 cells | >50 |
| COc1ccc(-c2cc3cccc(O)c3oc2=O)cc1 | non-infected MT-2 cells | >50 |
| COc1cc(-c2cc3ccccc3oc2=O)cc(OC)c1OC | non-infected MT-2 cells | 42.8 ± 16.2 |
| O=c1oc2cc(O)ccc2cc1-c1ccccc1 [Compound 16, 7-Hydroxy-3-phenyl-2H-chromen-2-one] | non-infected MT-2 cells | >50 |
| O=c1oc2ccccc2cc1-c1ccc(Cl)cc1Cl | non-infected MT-2 cells | >50 |
